# maps each entry to its pIC50
target of assay: β 5i (chymotrypsin-like activity) (Homo sapiens, UniProt P20618+P28062)
Construct: protease activity associated with the proteasome complex in cultured cells; endogenous in cells
experimental details: Cell-Based Proteasome subunit activity/selectivity assay, β5i, substrate (ANW)2Rh110
setup conditions: Ramos cells; substrate (ANW)2Rh110 (β5i); highest concentration tested 20 μM; read-out: Ic50:ramos:ac-(anw)2-r110
Give only the number. pIC50 is defined as minus log10 of concentration in molar units.

- molecule: "O=C(CCNC(=O)c1cn(CCNC(=O)c2ccc(C(F)(F)F)cc2F)nn1)c1ccccc1 [Example 78]"
  pIC50: 6.75
- molecule: "CCc1ccc(C(C#N)NC(=O)c2cn(CCNC(=O)c3cc(S(C)(=O)=O)ccc3OC)nn2)cc1 (stereo not shown) [Example 42]"
  pIC50: 5.50
- molecule: "CCc1ccc(C(C#N)NC(=O)c2cn(CCNC(=O)c3ccc(OC)c(OC)c3OC)nn2)nc1 (stereo not shown) [Example 63]"
  pIC50: 5.60

Kindly review the next molecule as well.
In one line, give reported pIC50 of the entry COc1ccc(C(=O)NCCn2cc(C(=O)NC(C#N)c3ccc(C(F)(F)F)cc3)nn2)c(F)c1 (stereo not shown) [Example 74] .
5.76
